Tested on: M19-MEL melanoma
Assay Summary: NCI tumour cell line growth inhibition, 48 h
Reported TGI values for the following compounds.

Compound	TGI
C/C(CC(=O)Nc1ccc(Cl)c(Cl)c1)=N/NC(=O)C[n+]1ccccc1	> 100 µM
Cc1ccc(NC(=O)CCC(CC(=O)C(C)(C)C)=NNC(=O)C(=O)NN)cc1C	> 100 µM
O=C(O)/C=C/n1c2ccccc2c(=O)c2ccccc21	> 100 µM
CCOC12OC3=C(CC1CC1=C(CCC1=O)O2)C(=O)CC3 (stereo not drawn)	> 100 µM
C=CCc1cc(-c2cc(CC=C)c(O)c(CN(CCCl)CCCl)c2)cc(CN(CCCl)CCCl)c1O	34.7 µM
C=CCCC(OCOCCOC)c1cc(C)c(O[Si](C)(C)C(C)(C)C)c(C)c1 (stereo not drawn)	55.3 µM
COC(=O)/C=C1/CCC2[C@@H](C(=O)CC3[C@]2(C)CCC[C@@]3(C)C(=O)OC)C1C (stereo partly drawn)	31.2 µM
CC1C(=O)OC2CC[N+]3(CC(=O)c4ccc(Br)cc4)CC=C(COC(=O)C(C)(O)C1(C)O)C23 (stereo not drawn)	> 375 µM

Reference source: PubChem BioAssay (NCI)
